Target: Voltage-gated potassium channel subunit beta-2 (Rattus norvegicus) (UniProt P62483)
Sequence (P62483 whole entry, looked up): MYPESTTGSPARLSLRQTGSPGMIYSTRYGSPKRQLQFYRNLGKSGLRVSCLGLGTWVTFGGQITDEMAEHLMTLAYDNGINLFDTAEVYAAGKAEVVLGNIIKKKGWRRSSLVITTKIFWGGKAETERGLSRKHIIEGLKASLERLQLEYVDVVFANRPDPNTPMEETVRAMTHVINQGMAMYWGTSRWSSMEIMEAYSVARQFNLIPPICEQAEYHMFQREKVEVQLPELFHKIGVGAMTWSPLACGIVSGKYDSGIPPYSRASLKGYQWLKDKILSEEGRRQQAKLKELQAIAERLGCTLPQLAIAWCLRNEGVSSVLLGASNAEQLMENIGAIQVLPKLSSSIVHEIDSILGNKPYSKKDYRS
Assay: KvBeta enzyme negative modulators, primary screen, biochemical, NADPH fluorescence (AID 622);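 note: slope of raw intensity against log time taken from 70 to 1610 s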
Settings: recombinant KvBeta, 4-cyanobenzaldehyde reduction, at 10 µM, hits give high values
Where a SMILES comes first, the peptide text is derived from it. The star is where a group is joined. Boc = CC(C)(C)OC(=O)*
Outcome label depends on fluorescence slope relative to -0.4: at/above gives true (1), below gives false (0).

Solved entries (count: 6):
1) CSCCC(NC(=O)OC(C)(C)C)C(=O)NC(CC(C)C)C(N)=O (stereo not drawn) (Boc-Met-Leu-NH2; configuration not given here) | false (0)
2) C=CCOc1ccccc1/C=c1\sc2nc(=O)c(C)nn2c1=O | true (1)
3) CC1=C(C(=O)OCC(C)C)C(c2cc3c(cc2Br)OCO3)NC(=O)N1C (stereo not drawn) | false (0)
4) O=C1CC(c2ccccc2)n2nc(NS(=O)(=O)c3ccccc3)nc2N1 (stereo not drawn) | false (0)
5) Cc1ccc(-n2ncc3c(NCCCN4CCCC4=O)ncnc32)c(C)c1 | true (1)
6) CCCCSCCCNC(=O)CS(=O)Cc1nc(-c2cccc(C)c2)oc1C (stereo not drawn) | true (1)

Test whether the compound C=CCN(C)CCCNC(=O)/C=N/O records fluorescence slope of -0.4 or higher. false (0)

Test whether the compound OC(COc1ccc2ccccc2c1)CN1CCOCC1 (stereo not drawn) records fluorescence slope of -0.4 or higher. false (0)

Test whether the compound CCOC(=O)C1=C(c2ccccc2)NC(=O)NC1c1ccc(N(C)C)cc1 (stereo not drawn) records fluorescence slope of -0.4 or higher. false (0)

Test whether the compound Cc1cccc(-n2ncc3c(NCc4ccco4)ncnc32)c1 records fluorescence slope of -0.4 or higher. true (1)

Test whether the compound COc1ccccc1C(=O)N1CCN(C(=O)COc2cccc(C)c2)CC1 records fluorescence slope of -0.4 or higher. true (1)

Test whether the compound COc1ccc(OCCN2C(=O)NC(C)(c3ccc(C)cc3)C2=O)cc1 (stereo not drawn) records fluorescence slope of -0.4 or higher. false (0)

Test whether the compound NC(=O)CSc1nnc2n(-c3ccccc3)c(=O)c3c4c(sc3n12)CCCCC4 records fluorescence slope of -0.4 or higher. false (0)

Test whether the compound Cc1cc(OCC(=O)NCCO)cc(C)c1Cl records fluorescence slope of -0.4 or higher. false (0)

Test whether the compound O=C(c1ccco1)N1CCN(c2ccc(Cl)cc2)CC1 records fluorescence slope of -0.4 or higher. false (0)

Test whether the compound CCN(CC)c1ccc(NC(=O)c2nc3nc(C)cc(C(F)F)n3n2)cc1 records fluorescence slope of -0.4 or higher. false (0)

Test whether the compound COC(=O)c1[nH]c2cc(OC)ccc2c1NC(=O)CN1CCN(c2cccc(C)c2)C(C)C1 (stereo not drawn) records fluorescence slope of -0.4 or higher. false (0)

Test whether the compound NCCCCCc1nnc(SC/C=C/c2ccccc2)o1 records fluorescence slope of -0.4 or higher. false (0)

----------
Biological target: Voltage-gated potassium channel subunit beta-2 (Rattus norvegicus)
Experiment: KvBeta positive modulators, primary screen, biochemical, NADPH fluorescence (AID 623);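 note: fluorescence intensity change per second fitted from 20 to 320 s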
Conditions: Recombinant KvBeta, NADPH fluorescence decrease slope, 10 min; at 10 µM; hits give low values
Activity calls are given as the source filed them.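 Rule for the calls: active = NADPH fluorescence slope more negative than the mean of all samples by about 3 SD, 99.7% confidence; inactive = the rest.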
quantity_measured: NADPH fluorescence slope

Would you please look over these solved cases?
1) CCCc1cc(=O)oc2c(CN3CCCC3)c(O)ccc12 | 1.1e-05 (inactive)
2) CCCCCc1c(C)nc(N2CCc3ccccc32)[nH]c1=O | 1.7e-05 (inactive)
3) c1ccc(-n2c(Cc3cccnc3)nc3cnccc32)cc1 | -5.8e-05 (inactive)
4) CCOC(=O)c1ccccc1NC(=O)c1cc2sccc2n1C | 1.4e-05 (inactive)
5) CN(C)c1ccc(CNCCC2(O)CCOC(C)(C)C2)cc1 (centres undefined) | -4.7e-06 (inactive)
6) CCOc1ccccc1NC(=O)CN(C)S(=O)(=O)c1cccc2nsnc12 | -4.9e-05 (inactive)

Enter reported NADPH fluorescence slope observed with Voltage-gated potassium channel subunit beta-2 (Rattus norvegicus) for Cc1ccc(OCC(O)CNS(=O)(=O)c2ccccc2C(=O)O)cc1 (centres undefined) -2.6e-05 (inactive)

Enter reported NADPH fluorescence slope observed with Voltage-gated potassium channel subunit beta-2 (Rattus norvegicus) for COC(=O)c1c(C)[nH]c(C(=O)OCc2ccc(F)cc2)c1C -1.9e-05 (inactive)

Enter reported NADPH fluorescence slope observed with Voltage-gated potassium channel subunit beta-2 (Rattus norvegicus) for CC(C)(C)C1=Nn2c(nnc2C2CCCCC2)SC1 -7.5e-05 (inactive)

Enter reported NADPH fluorescence slope observed with Voltage-gated potassium channel subunit beta-2 (Rattus norvegicus) for CC(=O)Nc1ccc(S(=O)(=O)NCc2cn3c(C)csc3n2)cc1 -3.6e-05 (inactive)

Enter reported NADPH fluorescence slope observed with Voltage-gated potassium channel subunit beta-2 (Rattus norvegicus) for O=C(O)c1ccc(C2CCCCC2)cn1 -4.4e-05 (inactive)
